biological target: UniProt:Q9NTG7; test: Activation of N-terminal his-tagged human SIRT3 (114 to 380 residues) deacylation activity expressed in Escherichia coli at 10 uM using ACS2-acK642 as substrate in presence of NAD+ by NADH oxidation-coupled enzymatic assay; conditions: filed as activator
VALUE KIND: Activity
Express your answer as a number followed by its unit.

Here is how some molecules turned out for Activity.
CCOC(=O)C1=CN(C(=O)c2ccc(Br)cc2)C=C(C(=O)OCC)C1c1ccccc1 :: 120%
CCOC(=O)C1=CN(C(=O)c2ccco2)C=C(C(=O)OCC)C1c1ccccc1 :: 120%
CCOC(=O)C1=CN(C(=O)c2ccc(OC)cc2)C=C(C(=O)OCC)C1c1ccccc1 :: 120%
CCOC(=O)C1=CN(C(=O)c2cc(OC)c(OC)c(OC)c2)C=C(C(=O)OCC)C1c1ccccc1 :: 128%

Ask: UniProt:Q9NTG7 / Activity / "CCOC(=O)C1=CN(C(=O)c2cccc(Cl)c2)C=C(C(=O)OCC)C1c1ccccc1" : value?
Result: 120%

Ask: And the next one, "CCOC(=O)C1=CN(C(=O)C2CCCCC2)C=C(C(=O)OCC)C1c1ccccc1" ?
Result: 120%

Ask: And the next one, "CCOC(=O)C1=CN(C(=O)c2cc(OC)cc(OC)c2)C=C(C(=O)OCC)C1c1ccccc1" ?
Result: 149%

Ask: And the next one, "CCOC(=O)C1=CN(C(=O)c2cccs2)C=C(C(=O)OCC)C1c1ccccc1" ?
Result: 120%

Ask: And the next one, "CCOC(=O)C1=CN(C(=O)c2ccc([N+](=O)[O-])cc2)C=C(C(=O)OCC)C1c1ccccc1" ?
Result: 120%

###

molecular target: NAD-dependent protein deacetylase sirtuin-3, mitochondrial (Homo sapiens)
VALUE KIND: Kd (µM)
Hi! Could you send only the number? It should be in µM, unit omitted.

Ask: Bench note: what Kd did "CCOC(=O)C1=CN(C(=O)c2ccc(Cl)cc2)C=C(C(=O)OCC)C1c1ccccc1" show?
Result: 74

###

system: MDA-MB-231; assay: Inhibition of clonogenicity in human MDA-MB-231 cells incubated for 48 hrs under hypoxia condition by crystal violet staining based assay; format: functional, cell-based; settings: MDA-MB-231, 48 h
VALUE KIND: pIC50
// scale note: pIC50 = -log10(conc_M); give the bare number

Ask: MDA-MB-231 / pIC50 / "CCOC(=O)C1=CN(C(=O)c2cc(OC)cc(OC)c2)C=C(C(=O)OCC)C1c1ccccc1" : value?
Result: 5.50

###

Molecular target: NAD-dependent protein deacetylase sirtuin-3, mitochondrial (Homo sapiens) (UniProt Q9NTG7)
Sequence (whole entry): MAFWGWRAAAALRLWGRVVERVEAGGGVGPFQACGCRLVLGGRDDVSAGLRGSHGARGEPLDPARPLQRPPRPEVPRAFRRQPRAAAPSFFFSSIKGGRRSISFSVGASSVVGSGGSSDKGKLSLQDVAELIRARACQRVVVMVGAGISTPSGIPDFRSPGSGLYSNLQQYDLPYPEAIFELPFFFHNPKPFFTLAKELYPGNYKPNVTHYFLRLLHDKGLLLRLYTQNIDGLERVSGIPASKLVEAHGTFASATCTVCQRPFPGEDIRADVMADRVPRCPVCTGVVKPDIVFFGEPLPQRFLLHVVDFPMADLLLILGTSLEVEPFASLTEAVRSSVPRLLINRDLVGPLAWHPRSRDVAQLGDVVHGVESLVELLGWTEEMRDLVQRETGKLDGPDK
Assay: Activation of human SIRT3 overexpressing in human MDA-MB-231 cells assessed as increase in GDH activity at 50 uM incubated for 4 hrs by absorbance assay
Type: cell-based
Conditions: filed as activator
Activity calls are given as the source filed them. The calls are words filed in the database; no cut-off is given here.
VALUE KIND: Activity

CCOC(=O)C1=CN(C(=O)c2ccc(OC)c(OC)c2)C=C(C(=O)OCC)C1c1ccccc1 :: Active
CCOC(=O)C1=CN(C(=O)c2cc(OC)c(OC)c(OC)c2)C=C(C(=O)OCC)C1c1ccccc1 :: 175%
CCOC(=O)C1=CN(C(=O)c2cccc(OC)c2)C=C(C(=O)OCC)C1c1ccccc1 :: Active
CCOC(=O)C1=CN(C(=O)c2cc(OC)cc(OC)c2)C=C(C(=O)OCC)C1c1ccccc1 :: Active

###

Biological target: NAD-dependent protein deacetylase sirtuin-3, mitochondrial (Homo sapiens)
Sequence (whole entry): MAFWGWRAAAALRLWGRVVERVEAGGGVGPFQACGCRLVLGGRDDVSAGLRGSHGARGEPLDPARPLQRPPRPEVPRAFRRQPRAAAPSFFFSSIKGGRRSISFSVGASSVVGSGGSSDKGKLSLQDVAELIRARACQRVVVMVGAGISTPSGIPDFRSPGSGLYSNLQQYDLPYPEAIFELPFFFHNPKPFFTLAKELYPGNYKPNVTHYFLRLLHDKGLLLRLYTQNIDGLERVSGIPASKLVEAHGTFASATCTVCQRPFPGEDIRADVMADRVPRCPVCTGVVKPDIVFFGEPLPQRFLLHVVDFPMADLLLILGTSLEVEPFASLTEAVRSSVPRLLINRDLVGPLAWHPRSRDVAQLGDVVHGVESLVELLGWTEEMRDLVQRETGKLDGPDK
Experiment: Activation of N-terminal his-tagged human SIRT3 (114 to 380 residues) deacylation activity expressed in Escherichia coli at 100 uM using ACS2-acK642 as substrate in presence of NAD+ by NADH oxidation-coupled enzymatic assay
Conditions: filed as activator
Active and inactive are the calls of the source. The rule behind the calls is not given here.
VALUE KIND: Activity

Here is how some compounds turned out for Activity.
CCOC(=O)C1=CN(C(=O)c2ccccc2)C=C(C(=O)OCC)C1c1ccccc1 :: 188%
CCOC(=O)C1=CN(C(=O)c2ccc(OC)c(OC)c2)C=C(C(=O)OCC)C1c1ccccc1 :: 387%
CCOC(=O)C1=CN(C(=O)c2ccc(F)cc2)C=C(C(=O)OCC)C1c1ccccc1 :: 142%
CCOC(=O)C1=CN(C(=O)C2CCCCC2)C=C(C(=O)OCC)C1c1ccccc1 :: Active

Ask: Bench note: what Activity did "CCOC(=O)C1=CN(C(=O)c2cccc(Cl)c2)C=C(C(=O)OCC)C1c1ccccc1" show?
Result: 204%

Ask: And the next one, "CCOC(=O)C1=CN(C(=O)c2cc(OC)cc(OC)c2)C=C(C(=O)OCC)C1c1ccccc1" ?
Result: 178%

Ask: And the next one, "CCOC(=O)C1=CN(C(=O)Cc2ccccc2)C=C(C(=O)OCC)C1c1ccccc1" ?
Result: Active

Ask: And the next one, "CCOC(=O)C1=CN(C(=O)c2cccc(Br)c2)C=C(C(=O)OCC)C1c1ccccc1" ?
Result: 214%

Ask: And the next one, "CCOC(=O)C1=CN(C(=O)c2cccc(OC)c2)C=C(C(=O)OCC)C1c1ccccc1" ?
Result: 217%

Ask: And the next one, "CCOC(=O)C1=CN(C(=O)c2ccc(Br)cc2)C=C(C(=O)OCC)C1c1ccccc1" ?
Result: 184%

Ask: And the next one, "CCOC(=O)C1=CN(C(=O)c2ccc(Cl)cc2)C=C(C(=O)OCC)C1c1ccccc1" ?
Result: 237%

Ask: And the next one, "CCOC(=O)C1=CN(C(=O)c2cccc(F)c2)C=C(C(=O)OCC)C1c1ccccc1" ?
Result: 196%

Ask: And the next one, "CCOC(=O)C1=CN(C(=O)c2cc(OC)c(OC)c(OC)c2)C=C(C(=O)OCC)C1c1ccccc1" ?
Result: 269%

###

biological target: NAD-dependent protein deacetylase sirtuin-3, mitochondrial (Homo sapiens) (UniProt Q9NTG7); experiment: Activation of N-terminal his-tagged human SIRT3 (114 to 380 residues) deacylation activity expressed in Escherichia coli at 10 uM using ACS2-acK642 as substrate in presence of NAD+ by NADH oxidation-coupled enzymatic assay; details: filed as activator
VALUE KIND: Activity
Express your answer as a number followed by its unit.

CCOC(=O)C1=CN(C(=O)c2cccc([N+](=O)[O-])c2)C=C(C(=O)OCC)C1c1ccccc1 :: 120%
CCOC(=O)C1=CN(C(=O)c2ccccc2)C=C(C(=O)OCC)C1c1ccccc1 :: 157%
CCOC(=O)C1=CN(C(=O)c2ccc(F)cc2)C=C(C(=O)OCC)C1c1ccccc1 :: 120%
CCOC(=O)C1=CN(C(=O)c2ccc(OC)c(OC)c2)C=C(C(=O)OCC)C1c1ccccc1 :: 158%
CCOC(=O)C1=CN(C(=O)c2cccc(Br)c2)C=C(C(=O)OCC)C1c1ccccc1 :: 120%

Ask: Bench note: what Activity did "CCOC(=O)C1=CN(C(=O)c2ccc(Cl)cc2)C=C(C(=O)OCC)C1c1ccccc1" show?
Result: 120%

Ask: And the next one, "CCOC(=O)C1=CN(C(=O)c2cccc(F)c2)C=C(C(=O)OCC)C1c1ccccc1" ?
Result: 120%

Ask: And the next one, "CCOC(=O)C1=CN(C(=O)Cc2ccccc2)C=C(C(=O)OCC)C1c1ccccc1" ?
Result: 176%

Ask: And the next one, "CCOC(=O)C1=CN(C(=O)c2ccc(C#N)cc2)C=C(C(=O)OCC)C1c1ccccc1" ?
Result: 120%

Ask: And the next one, "CCOC(=O)C1=CN(C(=O)c2ccsc2)C=C(C(=O)OCC)C1c1ccccc1" ?
Result: 120%

// provenance: ChEMBL document CHEMBL5331142
